The measurements presented in this section are drawn from the NIST ThermoML archive (doi:10.1021/je300938w).

# Assay: wn = mass fraction of the nth substance listed
# Condition: 333.15 K; 101 kPa; Liquid; Concentric cylinders viscometry; w1 = 0.05
Numbers after ± are expanded uncertainties.
This section presents molecules with their documented viscosity values.

{"Molecule": "CC(O)CN (centres undefined) [1-amino-2-propanol] + O", "viscosity": "0.5696 ± 0.006 mPa·s"}
{"Molecule": "CC(O)CN(CC(C)O)CC(C)O (centres undefined) [triisopropanolamine] + O", "viscosity": "0.5719 ± 0.0061 mPa·s"}
{"Molecule": "CC(O)CNCC(C)O (centres undefined) [N-(2-hydroxypropyl)-2-hydroxy-1-propanamine] + O", "viscosity": "0.5833 ± 0.006 mPa·s"}

Next molecule, please.
Quick one: give measured viscosity for OCCNCCO [diethanolamine] + O
0.5596 ± 0.0059 mPa·s

----------
# Assay: wn = mass fraction of the nth substance listed
# Condition: 323.15 K; 101 kPa; Liquid; Vibrating tube method; w1 = 0.1
// values below are reported mass density
// units = kg/m3; emit number, no label

{"Compound": "CC(O)CN (centres undefined) [1-amino-2-propanol] + O", "mass density / kg/m3": 989.197}
{"Compound": "OCCNCCO [diethanolamine] + O", "mass density / kg/m3": 999.439}

Quick one: give measured mass density for CC(O)CN(CC(C)O)CC(C)O (centres undefined) [triisopropanolamine] + O
994.168

Give the reported mass density for this compound. CC(O)CNCC(C)O (centres undefined) [N-(2-hydroxypropyl)-2-hydroxy-1-propanamine] + O
993.722

----------
viscosity overview
# Assay: wn = mass fraction of the nth substance listed
# Condition: 338.15 K; 101 kPa; Liquid; Concentric cylinders viscometry; w1 = 0.2
Numbers after ± are expanded uncertainties.

Example entries begin here.
{"Molecule": "CC(O)CN (centres undefined) [1-amino-2-propanol] + O", "viscosity": "0.8 ± 0.0068 mPa·s"}
{"Molecule": "CC(O)CNCC(C)O (centres undefined) [N-(2-hydroxypropyl)-2-hydroxy-1-propanamine] + O", "viscosity": "0.8643 ± 0.007 mPa·s"}
{"Molecule": "CC(O)CN(CC(C)O)CC(C)O (centres undefined) [triisopropanolamine] + O", "viscosity": "0.8381 ± 0.008 mPa·s"}

Could you now consider this next molecule?
Identify the reported viscosity for the following entry. OCCNCCO [diethanolamine] + O
0.799 ± 0.0066 mPa·s

----------
# Assay: wn = mass fraction of the nth substance listed
# Condition: 323.15 K; 101 kPa; Liquid; Concentric cylinders viscometry; w1 = 0.2
Reported viscosity values for the following compounds.
Hi! Could you send only the number? It should be in mPa·s, unit omitted.

For orientation, consider the following solved cases.
{"Compound": "CC(O)CNCC(C)O (centres undefined) [N-(2-hydroxypropyl)-2-hydroxy-1-propanamine] + O", "Unit Text": "mPa·s", "viscosity": 1.171}
{"Compound": "CC(O)CN (centres undefined) [1-amino-2-propanol] + O", "Unit Text": "mPa·s", "viscosity": 1.039}
{"Compound": "OCCNCCO [diethanolamine] + O", "Unit Text": "mPa·s", "viscosity": 1.048}

Specify reported viscosity for the compound shown: CC(O)CN(CC(C)O)CC(C)O (centres undefined) [triisopropanolamine] + O
1.125

----------
# Assay: refractive index (Na D-line) (dimensionless); wn = mass fraction of the nth substance listed
# Condition: 298.15 K; 101 kPa; Liquid; Standard Abbe refractometry; w1 = 0.25
The entries below come with measured refractive index values attached.
# print the numeric value only

Identify refractive index associated with the compound CC(O)CNCC(C)O (centres undefined) [N-(2-hydroxypropyl)-2-hydroxy-1-propanamine] + O
1.36925

Indicate the recorded refractive index value for this compound: CC(O)CN (centres undefined) [1-amino-2-propanol] + O
1.36649

Return the recorded refractive index value; entry: CC(O)CN(CC(C)O)CC(C)O (centres undefined) [triisopropanolamine] + O
1.37063

Look up and state reported refractive index for OCCNCCO [diethanolamine] + O
1.37017
